Taken from paper PMC12521441.

biological target: YFV helicase (Yellow fever virus)
Sequence (P03314 1660-2107 limits assumed): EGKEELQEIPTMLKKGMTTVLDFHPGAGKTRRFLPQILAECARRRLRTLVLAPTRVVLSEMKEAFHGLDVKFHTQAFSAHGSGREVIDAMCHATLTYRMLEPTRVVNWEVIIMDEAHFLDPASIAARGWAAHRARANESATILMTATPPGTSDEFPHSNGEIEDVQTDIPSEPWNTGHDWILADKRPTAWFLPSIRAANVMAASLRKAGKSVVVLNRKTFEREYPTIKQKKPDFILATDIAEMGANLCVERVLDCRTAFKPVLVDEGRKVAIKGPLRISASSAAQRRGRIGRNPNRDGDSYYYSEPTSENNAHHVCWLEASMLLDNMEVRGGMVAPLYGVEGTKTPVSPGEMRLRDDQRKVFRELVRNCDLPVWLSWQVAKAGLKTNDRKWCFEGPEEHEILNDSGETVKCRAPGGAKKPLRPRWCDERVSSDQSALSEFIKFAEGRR
metric: pKd
Formally, pKd is defined as -log10 of the concentration c, with c in mol/L.

Task: Could you tell me which pKd is on file for COc1cc(C(=O)NS(=O)(=O)c2ccccc2C)ccc1Cc1cn(C)c2ccc(NC(=O)OC3CCCC3)cc12 [Zafirlukast] ?
Result: 5.18

---

target: ZIKV helicase (Zika virus)
Sequence (Q32ZE1 1670-2115 limits assumed): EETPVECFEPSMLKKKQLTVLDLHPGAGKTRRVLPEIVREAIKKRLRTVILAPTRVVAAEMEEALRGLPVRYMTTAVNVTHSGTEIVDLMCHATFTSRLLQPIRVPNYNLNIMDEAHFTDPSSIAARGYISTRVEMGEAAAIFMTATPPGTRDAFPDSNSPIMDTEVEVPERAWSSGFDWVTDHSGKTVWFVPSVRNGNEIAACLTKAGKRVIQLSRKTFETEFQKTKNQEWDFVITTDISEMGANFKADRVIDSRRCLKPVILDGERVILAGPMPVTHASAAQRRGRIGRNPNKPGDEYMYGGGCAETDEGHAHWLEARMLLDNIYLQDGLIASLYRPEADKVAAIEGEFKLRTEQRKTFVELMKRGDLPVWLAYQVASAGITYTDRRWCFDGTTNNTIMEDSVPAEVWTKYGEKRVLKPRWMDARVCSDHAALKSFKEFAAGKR
metric: Kd (µM)
The figure you give is taken to be in µM; do not add the unit.

Task: For COc1cc(C(=O)NS(=O)(=O)c2ccccc2C)ccc1Cc1cn(C)c2ccc(NC(=O)OC3CCCC3)cc12 , what is its reported Kd?
Result: 13.9

---

molecular target: DENV4 helicase (Dengue virus type 4, UniProt Q2YHF0)
Sequence (Q2YHF0 1645-2092 limits assumed): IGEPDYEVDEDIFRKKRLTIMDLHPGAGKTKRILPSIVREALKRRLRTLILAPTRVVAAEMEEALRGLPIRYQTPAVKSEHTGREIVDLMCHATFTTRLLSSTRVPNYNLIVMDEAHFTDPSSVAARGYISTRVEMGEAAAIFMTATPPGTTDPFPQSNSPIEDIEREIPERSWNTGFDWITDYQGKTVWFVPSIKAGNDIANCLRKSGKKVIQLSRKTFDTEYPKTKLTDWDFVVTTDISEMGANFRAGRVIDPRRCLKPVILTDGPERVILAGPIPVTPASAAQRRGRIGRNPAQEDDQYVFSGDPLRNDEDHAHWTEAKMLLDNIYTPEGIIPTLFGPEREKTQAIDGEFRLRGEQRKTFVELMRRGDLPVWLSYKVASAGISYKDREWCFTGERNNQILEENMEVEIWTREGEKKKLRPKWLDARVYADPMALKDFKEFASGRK
metric: Kd (nM)
All answers are understood in nM, so give the number only.

Task: Recorded Kd for COc1cc(C(=O)NS(=O)(=O)c2ccccc2C)ccc1Cc1cn(C)c2ccc(NC(=O)OC3CCCC3)cc12 , please?
Result: 1570
